Entries and their pIC50 values follow.
target: BACE1 (Homo sapiens, UniProt P56817); construct: Human HEK293 cells which are stably transfected with a vector expressing a cDNA of the human APP wt gene (APP695); endogenous in cells; test: Cellular Aβ-lowering assay (Aβ40 ELISA, HEK293 cells expressing human APP695); details: HEK293 cells stably expressing human APP695; Aβ40 in supernatant after 18-20 hrs
Sequence (P56817 46-501): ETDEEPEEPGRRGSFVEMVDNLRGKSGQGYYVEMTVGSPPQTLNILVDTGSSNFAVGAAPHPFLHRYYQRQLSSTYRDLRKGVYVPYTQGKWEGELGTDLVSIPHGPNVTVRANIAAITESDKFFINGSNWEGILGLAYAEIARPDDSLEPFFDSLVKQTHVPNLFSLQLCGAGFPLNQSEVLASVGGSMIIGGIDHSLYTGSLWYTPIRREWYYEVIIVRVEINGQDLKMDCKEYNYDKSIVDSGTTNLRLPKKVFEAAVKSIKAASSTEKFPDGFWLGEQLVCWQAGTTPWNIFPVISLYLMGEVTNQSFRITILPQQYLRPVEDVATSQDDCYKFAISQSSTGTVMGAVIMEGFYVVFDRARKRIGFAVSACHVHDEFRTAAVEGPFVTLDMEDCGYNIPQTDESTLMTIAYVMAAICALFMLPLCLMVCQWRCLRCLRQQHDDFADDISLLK
pIC50: −log10 of the molar value.
Recorded endpoint: pIC50

INSERT INTO measurements (molecule, recorded_value) VALUES
  ('CC1(c2cccc(-c3nc4cc(Cl)ccc4o3)c2)COCC(N)=N1 (stereo not drawn)', 5.83),
  ('CC1(c2cccc(-c3nc4cc(Cl)ccc4[nH]3)c2)COCC(N)=N1 (stereo not drawn)', 5.89),
  ('CC1(c2cccc(-c3cc(Cl)cc(C(N)=O)c3)c2)COCC(N)=N1 (stereo not drawn)', 5.95);

Data provenance is patent US8399459B2.
